Test system: Escherichia coli TOP10
Experimental protocol: shrunken log2 fold change of peptide-encoding DNA abundance (4.5 h post-induction vs induction); higher = less antimicrobial activity (less host growth inhibition)
Run conditions: time post-induction: 4.5 h; library: site-saturation at positions 5, 18, 19, 20
Entry class follows shrunken log2 fold change: lo (below -0.07), med (-0.07 to below 0.1), hi (0.1 or more)

Residues: RRIRTRPPRLPRPRPRPRHFPRP
Assigned class: lo
//
Residues: RRIRVRPPRLPRPRPRPDPVPRP
Assigned class: med
//
Residues: RRIRARPPRLPRPRPRPCTKPRP
Assigned class: hi
//
Residues: RRIRRRPPRLPRPRPRPKAFPRP
Assigned class: med
//
Residues: RRIRTRPPRLPRPRPRPNWGPRP
Assigned class: med

Incoming: # bin lookup: classify RRIRLRPPRLPRPRPRPLELPRP by its shrunken log2 fold change
Outgoing: med

Incoming: # bin lookup: classify RRIRGRPPRLPRPRPRPCLLPRP by its shrunken log2 fold change
Outgoing: hi

Incoming: # bin lookup: classify RRIRNRPPRLPRPRPRPHDSPRP by its shrunken log2 fold change
Outgoing: med

Incoming: # bin lookup: classify RRIRIRPPRLPRPRPRPLLRPRP by its shrunken log2 fold change
Outgoing: lo

Incoming: # bin lookup: classify RRIRVRPPRLPRPRPRPTQEPRP by its shrunken log2 fold change
Outgoing: hi

Incoming: # bin lookup: classify RRIRMRPPRLPRPRPRPFEDPRP by its shrunken log2 fold change
Outgoing: hi

Incoming: # bin lookup: classify RRIRNRPPRLPRPRPRPRAMPRP by its shrunken log2 fold change
Outgoing: hi

Incoming: # bin lookup: classify RRIRPRPPRLPRPRPRPNNQPRP by its shrunken log2 fold change
Outgoing: lo

Incoming: # bin lookup: classify RRIRERPPRLPRPRPRPQAWPRP by its shrunken log2 fold change
Outgoing: med

Incoming: # bin lookup: classify RRIRKRPPRLPRPRPRPEIDPRP by its shrunken log2 fold change
Outgoing: hi

Incoming: # bin lookup: classify RRIRFRPPRLPRPRPRPMKFPRP by its shrunken log2 fold change
Outgoing: lo

Incoming: # bin lookup: classify RRIRPRPPRLPRPRPRPQRSPRP by its shrunken log2 fold change
Outgoing: hi

Incoming: # bin lookup: classify RRIRARPPRLPRPRPRPTLCPRP by its shrunken log2 fold change
Outgoing: hi

Incoming: # bin lookup: classify RRIRWRPPRLPRPRPRPMILPRP by its shrunken log2 fold change
Outgoing: lo

Incoming: # bin lookup: classify RRIRNRPPRLPRPRPRPYLPPRP by its shrunken log2 fold change
Outgoing: lo

Incoming: # bin lookup: classify RRIRYRPPRLPRPRPRPVHDPRP by its shrunken log2 fold change
Outgoing: lo

Incoming: # bin lookup: classify RRIRIRPPRLPRPRPRPAGRPRP by its shrunken log2 fold change
Outgoing: hi

Incoming: # bin lookup: classify RRIRGRPPRLPRPRPRPFLFPRP by its shrunken log2 fold change
Outgoing: hi

Incoming: # bin lookup: classify RRIRTRPPRLPRPRPRPAFRPRP by its shrunken log2 fold change
Outgoing: lo

Incoming: # bin lookup: classify RRIRQRPPRLPRPRPRPKFAPRP by its shrunken log2 fold change
Outgoing: med

Incoming: # bin lookup: classify RRIRDRPPRLPRPRPRPCWGPRP by its shrunken log2 fold change
Outgoing: med

###

Test system: Escherichia coli TOP10
Experimental protocol: shrunken log2 fold change of peptide-encoding DNA abundance (4.5 h post-induction vs induction); higher = less antimicrobial activity (less host growth inhibition)
Run conditions: time post-induction: 4.5 h; library: site-saturation at positions 5, 18, 19, 20
Measure: shrunken log2 fold change
Keep it simple and answer with nothing but the number.

Incoming: Tell me the measured shrunken log2 fold change of RRIRKRPPRLPRPRPRPAIHPRP , please.
Outgoing: -0.0696

Incoming: Tell me the measured shrunken log2 fold change of RRIRNRPPRLPRPRPRPIRRPRP , please.
Outgoing: -0.163

Incoming: Tell me the measured shrunken log2 fold change of RRIRVRPPRLPRPRPRPIAYPRP , please.
Outgoing: -0.184

Incoming: Tell me the measured shrunken log2 fold change of RRIRIRPPRLPRPRPRPGWSPRP , please.
Outgoing: 0.312

Incoming: Tell me the measured shrunken log2 fold change of RRIRHRPPRLPRPRPRPPTPPRP , please.
Outgoing: 0.518

Incoming: Tell me the measured shrunken log2 fold change of RRIRTRPPRLPRPRPRPNGKPRP , please.
Outgoing: -0.189

Incoming: Tell me the measured shrunken log2 fold change of RRIRVRPPRLPRPRPRPRYCPRP , please.
Outgoing: -0.144

Incoming: Tell me the measured shrunken log2 fold change of RRIRSRPPRLPRPRPRPVASPRP , please.
Outgoing: -0.151

###

System: Escherichia coli TOP10
Experimental protocol: shrunken log2 fold change of peptide-encoding DNA abundance (4.5 h post-induction vs induction); higher = less antimicrobial activity (less host growth inhibition)
Run conditions: time post-induction: 4.5 h; library: site-saturation at positions 5, 18, 19, 20
Label not fulfilled if shrunken log2 fold change falls below -0.04; label fulfilled in every other case.

Below, 4 sequences whose answers are already recorded.
Residues: RRIRPRPPRLPRPRPRPCGLPRP
Assay system: Escherichia coli TOP10
Assigned class: fulfilled
//
Residues: RRIRIRPPRLPRPRPRPPNPPRP
Assay system: Escherichia coli TOP10
Assigned class: fulfilled
//
Residues: RRIRIRPPRLPRPRPRPRKNPRP
Assay system: Escherichia coli TOP10
Assigned class: not fulfilled
//
Residues: RRIRFRPPRLPRPRPRPRGHPRP
Assay system: Escherichia coli TOP10
Assigned class: fulfilled

Incoming: Please check the record RRIRSRPPRLPRPRPRPVYKPRP and state if its shrunken log2 fold change is at or above -0.04.
Outgoing: not fulfilled

Incoming: Please check the record RRIRIRPPRLPRPRPRPQWTPRP and state if its shrunken log2 fold change is at or above -0.04.
Outgoing: not fulfilled

Incoming: Please check the record RRIRMRPPRLPRPRPRPYQLPRP and state if its shrunken log2 fold change is at or above -0.04.
Outgoing: fulfilled

Incoming: Please check the record RRIRYRPPRLPRPRPRPHEQPRP and state if its shrunken log2 fold change is at or above -0.04.
Outgoing: not fulfilled

Incoming: Please check the record RRIRRRPPRLPRPRPRPGGVPRP and state if its shrunken log2 fold change is at or above -0.04.
Outgoing: fulfilled

Incoming: Please check the record RRIRRRPPRLPRPRPRPMMHPRP and state if its shrunken log2 fold change is at or above -0.04.
Outgoing: fulfilled

Incoming: Please check the record RRIRVRPPRLPRPRPRPFQEPRP and state if its shrunken log2 fold change is at or above -0.04.
Outgoing: fulfilled

Incoming: Please check the record RRIRGRPPRLPRPRPRPQPAPRP and state if its shrunken log2 fold change is at or above -0.04.
Outgoing: fulfilled

Incoming: Please check the record RRIRHRPPRLPRPRPRPADIPRP and state if its shrunken log2 fold change is at or above -0.04.
Outgoing: not fulfilled

Incoming: Please check the record RRIRIRPPRLPRPRPRPDLFPRP and state if its shrunken log2 fold change is at or above -0.04.
Outgoing: not fulfilled

Incoming: Please check the record RRIRKRPPRLPRPRPRPAYHPRP and state if its shrunken log2 fold change is at or above -0.04.
Outgoing: not fulfilled

Incoming: Please check the record RRIRWRPPRLPRPRPRPYHLPRP and state if its shrunken log2 fold change is at or above -0.04.
Outgoing: not fulfilled

Incoming: Please check the record RRIRQRPPRLPRPRPRPQHTPRP and state if its shrunken log2 fold change is at or above -0.04.
Outgoing: not fulfilled

Incoming: Please check the record RRIRMRPPRLPRPRPRPRAQPRP and state if its shrunken log2 fold change is at or above -0.04.
Outgoing: fulfilled

Incoming: Please check the record RRIRERPPRLPRPRPRPQYKPRP and state if its shrunken log2 fold change is at or above -0.04.
Outgoing: not fulfilled

Incoming: Please check the record RRIRNRPPRLPRPRPRPPDVPRP and state if its shrunken log2 fold change is at or above -0.04.
Outgoing: not fulfilled

Incoming: Please check the record RRIRQRPPRLPRPRPRPSMGPRP and state if its shrunken log2 fold change is at or above -0.04.
Outgoing: not fulfilled

Incoming: Please check the record RRIRVRPPRLPRPRPRPNTNPRP and state if its shrunken log2 fold change is at or above -0.04.
Outgoing: not fulfilled

Incoming: Please check the record RRIRMRPPRLPRPRPRPWMHPRP and state if its shrunken log2 fold change is at or above -0.04.
Outgoing: not fulfilled

###

Tested on: Escherichia coli TOP10;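 also: peptides expressed intracellularly from a pBAD plasmid library in pooled LB shake-flask culture, induced with 0.3% L-arabinose, DNA abundance read by NGS, three biological replicates, DESeq2 with apeglm shrinkage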
Experimental protocol: shrunken log2 fold change of peptide-encoding DNA abundance (4.5 h post-induction vs induction); higher = less antimicrobial activity (less host growth inhibition)
Run conditions: time post-induction: 4.5 h; library: site-saturation at positions 5, 18, 19, 20
Catalogue of shrunken log2 fold change values
Keep it simple and answer with nothing but the number.

Residues: RRIRIRPPRLPRPRPRPWPEPRP
Measure: shrunken log2 fold change
Measured number: -0.162

Incoming: Tell me the measured shrunken log2 fold change of RRIRRRPPRLPRPRPRPLYMPRP , please.
Outgoing: -0.15

Incoming: Tell me the measured shrunken log2 fold change of RRIRRRPPRLPRPRPRPKLTPRP , please.
Outgoing: 0.0538

Incoming: Tell me the measured shrunken log2 fold change of RRIRTRPPRLPRPRPRPEQAPRP , please.
Outgoing: 0.173

Incoming: Tell me the measured shrunken log2 fold change of RRIRCRPPRLPRPRPRPVCPPRP , please.
Outgoing: 0.0356

Incoming: Tell me the measured shrunken log2 fold change of RRIRRRPPRLPRPRPRPWQGPRP , please.
Outgoing: -0.00783

Incoming: Tell me the measured shrunken log2 fold change of RRIRVRPPRLPRPRPRPRPTPRP , please.
Outgoing: 0.268

Incoming: Tell me the measured shrunken log2 fold change of RRIRWRPPRLPRPRPRPCSRPRP , please.
Outgoing: -0.162
